- assay system: T1, hen egg lysozyme (Gallus gallus (hen egg white), UniProt P00698)
- T1 construct: hen egg lysozyme (HEL), the antigen of D3-L11; also in PDB 6JB8; The supplier is named for the ELISA only; also called HEL; antigen lysozyme; source: bought: Sigma-Aldrich, Cat No. L6876
- T1 sequence (P00698 19-147): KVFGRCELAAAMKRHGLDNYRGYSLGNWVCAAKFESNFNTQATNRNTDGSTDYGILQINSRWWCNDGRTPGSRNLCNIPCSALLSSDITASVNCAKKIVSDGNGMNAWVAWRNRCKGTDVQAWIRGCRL
- method summary: SPR; Biacore T200; lysozyme immobilised on Sensor Chip CM5 by amine coupling (200 RU); VHH injected 300 s, dissociation 600 s in PBST (PBS, 0.005% Tween 20); 1:1 binding model; duplicate
- cond: both partners purified
metric name: pKd
Quick note: pKd values are minus log10 of concentrations in mol/L.

Look up pKd of D3-L11 A79M (VHH, as the VHH chain of Sm1 (D3-L11 wild type, PDB 6JB8) with A79M; SAG tripeptide linker before the C-terminal 6xHis tag; source: ExpiCHO, transient transfection, purified from supernatant (His Mag Sepharose excel); not shown: His6, C-terminal, kept) VHH: DVQLVESGGGSVQAGGSLRLSCAASGSTDSIEYMTWFRQAPGKAREGVAALYTHTGNTYYTDSVKGRFTISQDKAKNMMYLRMDSVKSEDTAIYTCGATRKYVPVRFALDQSSYDYWGQGTQVTVSS and report it. 11.16

Look up pKd of D3-L11 A79V (VHH, as the VHH chain of Sm1 (D3-L11 wild type, PDB 6JB8) with A79V; SAG tripeptide linker before the C-terminal 6xHis tag; source: ExpiCHO, transient transfection, purified from supernatant (His Mag Sepharose excel); not shown: His6, C-terminal, kept) VHH: DVQLVESGGGSVQAGGSLRLSCAASGSTDSIEYMTWFRQAPGKAREGVAALYTHTGNTYYTDSVKGRFTISQDKAKNMVYLRMDSVKSEDTAIYTCGATRKYVPVRFALDQSSYDYWGQGTQVTVSS and report it. 11.44

Look up pKd of D3-L11 A79I (VHH, as the VHH chain of Sm1 (D3-L11 wild type, PDB 6JB8) with A79I; SAG tripeptide linker before the C-terminal 6xHis tag; source: ExpiCHO, transient transfection, purified from supernatant (His Mag Sepharose excel); not shown: His6, C-terminal, kept) VHH: DVQLVESGGGSVQAGGSLRLSCAASGSTDSIEYMTWFRQAPGKAREGVAALYTHTGNTYYTDSVKGRFTISQDKAKNMIYLRMDSVKSEDTAIYTCGATRKYVPVRFALDQSSYDYWGQGTQVTVSS and report it. 11.31

Look up pKd of anti-lysozyme VHH D3-L11, wild type (VHH, anti-hen egg lysozyme VHH D3-L11, 127 amino acids; A SAG tripeptide linker stands between the VHH and the C-terminal 6xHis tag; also called WT; source: ExpiCHO, transient transfection, purified from supernatant (His Mag Sepharose excel); not shown: His6, C-terminal, kept) VHH: DVQLVESGGGSVQAGGSLRLSCAASGSTDSIEYMTWFRQAPGKAREGVAALYTHTGNTYYTDSVKGRFTISQDKAKNMAYLRMDSVKSEDTAIYTCGATRKYVPVRFALDQSSYDYWGQGTQVTVSS and report it. 11.50
